# STUDY SYSTEM: hGIPR (Homo sapiens, UniProt P48546)
# Sequence (P48546 22-466): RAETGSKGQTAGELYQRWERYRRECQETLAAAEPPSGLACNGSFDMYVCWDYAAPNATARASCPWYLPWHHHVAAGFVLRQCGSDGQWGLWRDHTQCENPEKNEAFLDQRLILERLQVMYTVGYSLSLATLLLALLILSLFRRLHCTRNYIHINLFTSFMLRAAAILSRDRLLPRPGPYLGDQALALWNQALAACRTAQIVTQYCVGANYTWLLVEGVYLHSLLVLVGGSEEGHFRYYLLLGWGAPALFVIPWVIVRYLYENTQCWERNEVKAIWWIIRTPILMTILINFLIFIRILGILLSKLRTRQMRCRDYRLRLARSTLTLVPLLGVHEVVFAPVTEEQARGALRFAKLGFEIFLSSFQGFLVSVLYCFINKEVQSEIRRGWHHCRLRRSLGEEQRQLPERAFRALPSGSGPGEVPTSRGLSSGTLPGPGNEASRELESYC
# ASSAY SUMMARY: Functional cAMP activity in the presence of 1% HSA
# Assay type: cell-based
# COND: read-out: cAMP Rel EC50, hGIPR
Starred links: 1 amine or outer side, 2 acyl side, 3 side chain; linkers in the order of their positions; H or OH if unused. Non-standard residues stand in square brackets, D forms with d. Groups on a side chain read outwards from the residue. No end group written: not given here. *: point of attachment. C18 diacid = O=C(O)CCCCCCCCCCCCCCCCC(=O)*; αMePhe(2-F) = C[C@](N)(Cc1ccccc1F)C(=O)O; γGlu = O=C(O)[C@H](CCC(=O)[*:2])N[*:1]; αMe4Pal = C[C@](N)(Cc1ccncc1)C(=O)O; αMeY = C[C@](N)(Cc1ccc(O)cc1)C(=O)O; 4Pal = N[C@@H](Cc1ccncc1)C(=O)O; αMeL = CC(C)C[C@](C)(N)C(=O)O; αMeS = C[C@](N)(CO)C(=O)O; Orn = NCCC[C@H](N)C(=O)O; AEEA = NCCOCCOCC(=O)O; Aib = CC(C)(N)C(=O)O
The following substances are listed with their measured EC50 values.

Please review the entries below; each comes with its answer.
SUBSTANCE | STUDY SYSTEM | EC50
H-Y[Aib]QGTFTSDFSK[αMeL]LDKK([AEEA-γGlu-C18 diacid])AQ[Aib]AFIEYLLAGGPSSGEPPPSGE-NH2 [Example 23] | hGIPR (Homo sapiens, UniProt P48546) | 25.5 nM
Y[Aib]QGT[αMePhe(2-F)]TSD[4Pal][αMeS]I[αMeL]LD[Orn]K([γGlu-γGlu-C18 diacid])AQ[Aib][Orn]FI[dE][αMeY]LAEGGPSSGEPPPSGTEE-NH2 [Example 571] | hGIPR (Homo sapiens, UniProt P48546) | 4.23 nM
Y[Aib]QGT[αMePhe(2-F)]TSD[4Pal][αMeS]I[αMeL]LD[Orn]K([γGlu-γGlu-C18 diacid])AQ[αMe4Pal]EFI[dE][αMeY]LIEGGPSSGAPPPEGGGEEE-NH2 [Example 1221] | hGIPR (Homo sapiens, UniProt P48546) | 0.814 nM
H-Y[Aib]QGTFTSD[4Pal]SQ[αMeL]LDKK([Glu-γGlu-C18 diacid])AQ[αMe4Pal]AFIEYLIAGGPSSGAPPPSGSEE-NH2 [Example 1030] | hGIPR (Homo sapiens, UniProt P48546) | 21 nM

Let us examine a further case.
Any idea what its EC50 is? The substance is Y[Aib]QGT[αMePhe(2-F)]TSD[4Pal]SI[αMeL]LD[Orn]QAQ[αMe4Pal][Orn]FI[dE][αMeY]LIEGGPSSGEPPPETE-NH2 [Example 1230]
0.0152 nM
